B1: glmS ribozyme (parent)
chain: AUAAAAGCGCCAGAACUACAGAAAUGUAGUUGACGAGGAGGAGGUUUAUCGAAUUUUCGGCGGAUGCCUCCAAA

Variants of: B1
assay_explanation: self-cleavage kobs at 640 uM GlcN6P; higher = faster cleavage; RNA array
condition_notes: with glucosamine-6-phosphate
Variants at the floor of the assay were thinned out.
assay_endpoint: self-cleavage kobs at 640 uM GlcN6P

Task item: Please report the recorded self-cleavage kobs at 640 uM GlcN6P for A14C A52G U57G .
Reply: 8.13e-05 s⁻¹

Task item: Please report the recorded self-cleavage kobs at 640 uM GlcN6P for G40U U54G .
Reply: 0.00124 s⁻¹

Task item: Please report the recorded self-cleavage kobs at 640 uM GlcN6P for A6G A14U A48G G63U .
Reply: < 1e-05 s⁻¹

Task item: Please report the recorded self-cleavage kobs at 640 uM GlcN6P for C16U G32U C34G A53C .
Reply: < 1e-05 s⁻¹

Task item: Please report the recorded self-cleavage kobs at 640 uM GlcN6P for C11G G38U .
Reply: < 1e-05 s⁻¹

Task item: Please report the recorded self-cleavage kobs at 640 uM GlcN6P for U56G G63U .
Reply: < 1e-05 s⁻¹

Task item: Please report the recorded self-cleavage kobs at 640 uM GlcN6P for U31G .
Reply: 0.00394 s⁻¹

Task item: Please report the recorded self-cleavage kobs at 640 uM GlcN6P for G37U G43U .
Reply: < 1e-05 s⁻¹

Task item: Please report the recorded self-cleavage kobs at 640 uM GlcN6P for G13A G32U .
Reply: 4.76e-05 s⁻¹

Task item: Please report the recorded self-cleavage kobs at 640 uM GlcN6P for A12C U54A .
Reply: 0.0159 s⁻¹

Task item: Please report the recorded self-cleavage kobs at 640 uM GlcN6P for G40C U49A .
Reply: < 1e-05 s⁻¹

Task item: Please report the recorded self-cleavage kobs at 640 uM GlcN6P for C67A U69A .
Reply: 0.000234 s⁻¹

Task item: Please report the recorded self-cleavage kobs at 640 uM GlcN6P for G37A G62A .
Reply: < 1e-05 s⁻¹

Task item: Please report the recorded self-cleavage kobs at 640 uM GlcN6P for G29A A33U G44U .
Reply: < 1e-05 s⁻¹

Task item: Please report the recorded self-cleavage kobs at 640 uM GlcN6P for U57G C58G C67G .
Reply: 0.000157 s⁻¹

Task item: Please report the recorded self-cleavage kobs at 640 uM GlcN6P for G41A U55G .
Reply: 0.000142 s⁻¹

Task item: Please report the recorded self-cleavage kobs at 640 uM GlcN6P for G7U C34A U65G .
Reply: < 1e-05 s⁻¹

Task item: Please report the recorded self-cleavage kobs at 640 uM GlcN6P for A33C A42U C67A .
Reply: < 1e-05 s⁻¹

Task item: Please report the recorded self-cleavage kobs at 640 uM GlcN6P for G7U U47A A52C A53U U55G C61U .
Reply: < 1e-05 s⁻¹

Task item: Please report the recorded self-cleavage kobs at 640 uM GlcN6P for G35A G41C .
Reply: < 1e-05 s⁻¹

Task item: Please report the recorded self-cleavage kobs at 640 uM GlcN6P for G29C G32C G37U U45G .
Reply: < 1e-05 s⁻¹

Task item: Please report the recorded self-cleavage kobs at 640 uM GlcN6P for G43U U54G C58A C67U .
Reply: < 1e-05 s⁻¹

Task item: Please report the recorded self-cleavage kobs at 640 uM GlcN6P for A15U A53G .
Reply: 0.0015 s⁻¹

Task item: Please report the recorded self-cleavage kobs at 640 uM GlcN6P for C11U A53U C70G .
Reply: 0.000189 s⁻¹

Task item: Please report the recorded self-cleavage kobs at 640 uM GlcN6P for A53C U55C .
Reply: 0.00052 s⁻¹

Task item: Please report the recorded self-cleavage kobs at 640 uM GlcN6P for A36C G37C U46A A48G C70G .
Reply: < 1e-05 s⁻¹

Task item: Please report the recorded self-cleavage kobs at 640 uM GlcN6P for G32C G63U .
Reply: < 1e-05 s⁻¹

Task item: Please report the recorded self-cleavage kobs at 640 uM GlcN6P for A6U G29A U31A G43C U46G C58G .
Reply: < 1e-05 s⁻¹

Task item: Please report the recorded self-cleavage kobs at 640 uM GlcN6P for G13A C50G G66U U69A .
Reply: 0.000563 s⁻¹

Task item: Please report the recorded self-cleavage kobs at 640 uM GlcN6P for U31A U46G A48G .
Reply: < 1e-05 s⁻¹

Task item: Please report the recorded self-cleavage kobs at 640 uM GlcN6P for C16U G38A .
Reply: < 1e-05 s⁻¹

Task item: Please report the recorded self-cleavage kobs at 640 uM GlcN6P for A14G A33G G41U A48C U69G .
Reply: < 1e-05 s⁻¹

Task item: Please report the recorded self-cleavage kobs at 640 uM GlcN6P for G38C G43U A64C .
Reply: < 1e-05 s⁻¹

Task item: Please report the recorded self-cleavage kobs at 640 uM GlcN6P for C34G .
Reply: < 1e-05 s⁻¹

Task item: Please report the recorded self-cleavage kobs at 640 uM GlcN6P for A53G G66A .
Reply: 0.00474 s⁻¹

Task item: Please report the recorded self-cleavage kobs at 640 uM GlcN6P for C8G C58A U65G C71A .
Reply: < 1e-05 s⁻¹

Task item: Please report the recorded self-cleavage kobs at 640 uM GlcN6P for C10A C61G C67G C71G .
Reply: 0.000346 s⁻¹

Task item: Please report the recorded self-cleavage kobs at 640 uM GlcN6P for U45C U65A C67G .
Reply: 0.000279 s⁻¹

Task item: Please report the recorded self-cleavage kobs at 640 uM GlcN6P for C11A A64G .
Reply: 5.53e-05 s⁻¹

Task item: Please report the recorded self-cleavage kobs at 640 uM GlcN6P for A33G C61G .
Reply: < 1e-05 s⁻¹

Task item: Please report the recorded self-cleavage kobs at 640 uM GlcN6P for C10U A33U A52U .
Reply: < 1e-05 s⁻¹

Task item: Please report the recorded self-cleavage kobs at 640 uM GlcN6P for A52G C67G .
Reply: 0.000107 s⁻¹

Task item: Please report the recorded self-cleavage kobs at 640 uM GlcN6P for G7U G44C .
Reply: < 1e-05 s⁻¹

Task item: Please report the recorded self-cleavage kobs at 640 uM GlcN6P for A48C C50A .
Reply: < 1e-05 s⁻¹

Task item: Please report the recorded self-cleavage kobs at 640 uM GlcN6P for A15C G40A U45A C70G .
Reply: < 1e-05 s⁻¹

Task item: Please report the recorded self-cleavage kobs at 640 uM GlcN6P for C58A G62A .
Reply: < 1e-05 s⁻¹
